Test system: cancer cell lines
test.name: Multiplexed cytotoxicity assay: cell proliferation (relative cell count IC50, GI50)
Type: cell-based
settings: KHOS-240S, 72 h, KHOS240S, Soft Tissue, Osteosarcoma
pIC50: −log10 of the molar value.
observation.type: pIC50

Query: Recall and state the measured pIC50 for C[C@]1(C(N)=O)CC[C@@H](n2c(Nc3c(Cl)cc(Cl)cc3Cl)nc3cnc(N[C@@H]4CCOC[C@H]4F)nc32)CC1 .
Result: < 5.00

====

Test system: pRSK1 S380 in Colo 205 cells
test.name: pRSK1 S380 Mesoscale assay in Colo 205 (incl. time course)
Format: cell-based
settings: Homo sapiens; Colo 205, 2 h treatment, n = 3
observation.type: pIC50
Formally, pIC50 is defined as -log10 of the concentration c, with c in mol/L.

Query: Determine from records and report pIC50 for C[C@]1(C(N)=O)CC[C@@H](n2c(Nc3c(Cl)cc(Cl)cc3Cl)nc3cnc(N[C@@H]4CCOC[C@H]4F)nc32)CC1 [Compound 1]
Result: 7.33

====

Test system: cancer cell lines
test.name: Multiplexed cytotoxicity assay: cell proliferation (relative cell count IC50, GI50)
Format: cell-based
settings: Homo sapiens, SU-DHL-5, SUDHL5 (Hematopoietic and lymphoid, Lymphoma)
observation.type: pIC50
// pIC50: -log10(molar conc.)

Query: Fill in reported pIC50 for this entry: C[C@]1(C(N)=O)CC[C@@H](n2c(Nc3c(Cl)cc(Cl)cc3Cl)nc3cnc(N[C@@H]4CCOC[C@H]4F)nc32)CC1
Result: 8.89

====

Test system: cancer cell lines
test.name: Multiplexed cytotoxicity assay: cell proliferation (relative cell count IC50, GI50)
Type: cell-based
settings: Homo sapiens, SU-DHL-4, SUDHL4 (Hematopoietic and lymphoid, Lymphoma)
observation.type: IC50 (µM)
// units = µM; emit number, no label

Query: // Input: C[C@]1(C(N)=O)CC[C@@H](n2c(Nc3c(Cl)cc(Cl)cc3Cl)nc3cnc(N[C@@H]4CCOC[C@H]4F)nc32)CC1 [Compound 1] . Output its IC50 only.
Result: 0.332

====

Test system: 64 cancer cell lines
test.name: Anti-proliferative activity across a panel of 64 cancer cell lines (CellTiter-Glo)
Type: cell-based
settings: Homo sapiens, SW1417, 72 h, SW1417 (Colon)
observation.type: IC50 (nM)
Value expressed in nM; do not type the unit.

Query: Please look at this compound and report its IC50: C[C@]1(C(N)=O)CC[C@@H](n2c(Nc3c(Cl)cc(Cl)cc3Cl)nc3cnc(N[C@@H]4CCOC[C@H]4F)nc32)CC1 [Compound 1]
Result: 16.9

====

Test system: cancer cell lines
test.name: Multiplexed cytotoxicity assay: cell proliferation (relative cell count IC50, GI50)
Type: cell-based
settings: Homo sapiens, SCC-9, SCC9 (Head and Neck)
observation.type: IC50 (nM)
Give just the number in nM; leave the unit off.

Query: State its IC50: C[C@]1(C(N)=O)CC[C@@H](n2c(Nc3c(Cl)cc(Cl)cc3Cl)nc3cnc(N[C@@H]4CCOC[C@H]4F)nc32)CC1 [Compound 1]
Result: 280

====

System: cancer cell lines
test.name: Multiplexed cytotoxicity assay: cell proliferation (relative cell count IC50, GI50)
Type: cell-based
settings: OE21, 72 h, OE21, Head and Neck, Esophageal; 72 h
observation.type: pIC50
To interpret pIC50, take it as minus log10 of a concentration measured in moles per litre.

Query: Give the measured pIC50 for C[C@]1(C(N)=O)CC[C@@H](n2c(Nc3c(Cl)cc(Cl)cc3Cl)nc3cnc(N[C@@H]4CCOC[C@H]4F)nc32)CC1
Result: 6.91

====

System: cancer cell lines
test.name: Multiplexed cytotoxicity assay: cell proliferation (relative cell count IC50, GI50)
Type: cell-based
settings: Homo sapiens, C-4-II, C4II (Female GU, Cervix)
observation.type: IC50

Query: Determine its reported IC50: C[C@]1(C(N)=O)CC[C@@H](n2c(Nc3c(Cl)cc(Cl)cc3Cl)nc3cnc(N[C@@H]4CCOC[C@H]4F)nc32)CC1 [Compound 1]
Result: > 10 µM

====

System: cancer cell lines
test.name: Multiplexed cytotoxicity assay: cell proliferation (relative cell count IC50, GI50)
Assay type: cell-based
settings: 72 h, TE125T, Soft Tissue, Sarcoma
observation.type: IC50

Query: Please give the documented IC50 of C[C@]1(C(N)=O)CC[C@@H](n2c(Nc3c(Cl)cc(Cl)cc3Cl)nc3cnc(N[C@@H]4CCOC[C@H]4F)nc32)CC1
Result: > 10 µM

====

Test system: cancer cell lines
test.name: Multiplexed cytotoxicity assay: cell proliferation (relative cell count IC50, GI50)
Type: cell-based
settings: Homo sapiens, JIYOYE, JIYOYE (Hematopoietic and lymphoid, Lymphoma)
observation.type: pIC50
Scale: negative log10 of molar concentration, which is what pIC50 denotes.

Query: Look up and state reported pIC50 for C[C@]1(C(N)=O)CC[C@@H](n2c(Nc3c(Cl)cc(Cl)cc3Cl)nc3cnc(N[C@@H]4CCOC[C@H]4F)nc32)CC1
Result: 6.68

====

Test system: 64 cancer cell lines
test.name: Anti-proliferative activity across a panel of 64 cancer cell lines (CellTiter-Glo)
Type: cell-based
settings: 72 h, HLE (Liver)
observation.type: IC50 (µM)
Dear colleague, please return just the value in µM, with no unit written.

Query: Given C[C@]1(C(N)=O)CC[C@@H](n2c(Nc3c(Cl)cc(Cl)cc3Cl)nc3cnc(N[C@@H]4CCOC[C@H]4F)nc32)CC1 , respond with its IC50.
Result: 9.62

====

test.name: Approximate solubility in various solvents at room temperature
Assay type: physicochemical
settings: heptane, organic solvent or mixture, thermodynamic from solid
observation.type: solubility at 1 day

Query: Give the measured solubility at 1 day for C[C@]1(C(N)=O)CC[C@@H](n2c(Nc3c(Cl)cc(Cl)cc3Cl)nc3cnc(N[C@@H]4CCOC[C@H]4F)nc32)CC1 [Form A]
Result: < 1000 µg/mL

====

System: cancer cell lines
test.name: Multiplexed cytotoxicity assay: cell proliferation (relative cell count IC50, GI50)
Type: cell-based
settings: HS934T (Skin, Melanoma)
pIC50: −log10 of the molar value.
observation.type: pIC50

Query: In one line, give reported pIC50 of the entry C[C@]1(C(N)=O)CC[C@@H](n2c(Nc3c(Cl)cc(Cl)cc3Cl)nc3cnc(N[C@@H]4CCOC[C@H]4F)nc32)CC1 .
Result: < 5.00

====

Tested on: cancer cell lines
test.name: Multiplexed cytotoxicity assay: cell proliferation (relative cell count IC50, GI50)
Type: cell-based
settings: Homo sapiens, LS-123, LS123 (Colon)
observation.type: pIC50
The read-out pIC50 is expressed as -log10 of concentration in moles per litre.

Query: Provide measured pIC50 value, entry: C[C@]1(C(N)=O)CC[C@@H](n2c(Nc3c(Cl)cc(Cl)cc3Cl)nc3cnc(N[C@@H]4CCOC[C@H]4F)nc32)CC1 [Compound 1]
Result: 6.73

====

System: cancer cell lines
test.name: Multiplexed cytotoxicity assay: cell proliferation (relative cell count IC50, GI50)
Format: cell-based
settings: Homo sapiens, PFSK-1, PFSK1 (CNS, Glioma)
pIC50: −log10 of the molar value.
observation.type: pIC50

Query: Specify measured pIC50 for C[C@]1(C(N)=O)CC[C@@H](n2c(Nc3c(Cl)cc(Cl)cc3Cl)nc3cnc(N[C@@H]4CCOC[C@H]4F)nc32)CC1 .
Result: < 5.00

====

Tested on: cancer cell lines
test.name: Multiplexed cytotoxicity assay: cell proliferation (relative cell count IC50, GI50)
Assay type: cell-based
settings: Homo sapiens, SW13, SW13 (Endocrine, Adrenal gland)
observation.type: pIC50
In plain terms, pIC50 is the concentration in mol/L turned into minus its base-10 logarithm.

Query: Specify reported pIC50 for the molecule shown: C[C@]1(C(N)=O)CC[C@@H](n2c(Nc3c(Cl)cc(Cl)cc3Cl)nc3cnc(N[C@@H]4CCOC[C@H]4F)nc32)CC1 [Compound 1]
Result: 6.87

====

System: cancer cell lines
test.name: Multiplexed cytotoxicity assay: cell proliferation (relative cell count IC50, GI50)
Type: cell-based
settings: Homo sapiens, HEC-1-A, 72 h, HEC1A, Female GU, Uterus
observation.type: pIC50
Schema: pIC50 number; meaning minus log10 of the concentration expressed in molar units.

Query: # lookup: cancer cell lines pIC50, key = C[C@]1(C(N)=O)CC[C@@H](n2c(Nc3c(Cl)cc(Cl)cc3Cl)nc3cnc(N[C@@H]4CCOC[C@H]4F)nc32)CC1 [Compound 1]
Result: 5.55

====

System: cancer cell lines
test.name: Multiplexed cytotoxicity assay: cell proliferation (relative cell count IC50, GI50)
Format: cell-based
settings: Homo sapiens, NTERA-2-cl-D1, 72 h, NTERA2CLD1, Testis; 72 h
observation.type: IC50 (µM)
The answer is to be given in µM; state only the numeric part.

Query: Determine from records and report IC50 for C[C@]1(C(N)=O)CC[C@@H](n2c(Nc3c(Cl)cc(Cl)cc3Cl)nc3cnc(N[C@@H]4CCOC[C@H]4F)nc32)CC1
Result: 0.0507
